system_under_test: human M4 muscarinic acetylcholine receptor (Homo sapiens, UniProt P08173)
assay_text: human FLIPR-based M4 PAM assay (CHO-K1 cells with human M4 receptor and Gaqi5, calcium dye fluorescence)
stated_conditions: inflection point (IP) of dose response curve, acetylcholine added at 20% of maximum response, read-out: M4 FLIPPR Hu IP
For each of the molecules below, state its pEC50.
Numbers only, as −log10 of the molar value.

Example cases with answers are listed next.
Cn1cnc2cc(-c3nccc(F)c3-c3cnn(CC4(C)CCCC4)c3)cnc21; 7.44
Cc1cn2ccc(-c3ncc(F)cc3-c3cnn(CC4(F)CCCC4)c3)cc2n1; 7.46
Cc1cnc(-c2ccn3ncnc3c2)c(-c2cnn(CC3(C)CCCC3)c2)c1; 7.10
COc1cc2ccc(-c3nc(C)ccc3-c3cnn(CC45CCC(CC4)C5)c3)cc2nn1; 8.00
Cc1ccc(-c2cnn(CC3(F)CCCC3)c2)c(-c2ccc3cc(C(F)(F)F)cnc3c2)n1; 7.52

List pEC50 for every entry below, keeping the order given.
1. Cc1ccc(-c2cnn(C[C@@H]3CC[C@H](F)C3)c2)c(-c2ccc3cccnc3c2)n1 (single isomer, unassigned) [Example 133]
2. Cc1ccc(-c2cnn(CC3(F)CCCC3)c2)c(-c2ccc3c(c2)C(=O)N(C2CC2)C3)n1
3. Cc1ccc(-c2cnn(CC3(C)CCCC3)c2)c(-c2ccc3c(c2)C(=O)OC3)n1

7.77
7.62
7.46

* * *

system_under_test: human M4 muscarinic acetylcholine receptor (Homo sapiens, UniProt P08173)
Sequence (P08173 1-479): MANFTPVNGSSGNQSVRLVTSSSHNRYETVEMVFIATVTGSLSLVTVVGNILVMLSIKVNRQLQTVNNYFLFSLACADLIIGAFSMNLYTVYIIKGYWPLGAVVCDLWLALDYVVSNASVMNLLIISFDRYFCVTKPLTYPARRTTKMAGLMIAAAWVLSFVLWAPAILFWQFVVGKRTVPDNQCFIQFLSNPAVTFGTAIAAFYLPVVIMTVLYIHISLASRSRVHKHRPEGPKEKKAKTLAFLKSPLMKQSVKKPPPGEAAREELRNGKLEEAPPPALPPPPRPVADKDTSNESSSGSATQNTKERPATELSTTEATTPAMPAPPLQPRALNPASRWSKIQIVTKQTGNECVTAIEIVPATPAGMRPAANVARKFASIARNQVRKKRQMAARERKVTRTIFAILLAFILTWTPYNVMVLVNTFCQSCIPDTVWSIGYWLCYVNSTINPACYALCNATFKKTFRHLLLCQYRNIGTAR
assay_text: human FLIPR-based M4 PAM assay (CHO-K1 cells with human M4 receptor and Gaqi5, calcium dye fluorescence)
stated_conditions: inflection point (IP) of dose response curve, acetylcholine added at 20% of maximum response, read-out: M4 FLIPPR Hu IP
For each of the compounds below, state its pEC50.
Numbers only, as −log10 of the molar value.

Example cases with answers are listed next.
Cc1cn2ccc(-c3ncc(Cl)cc3-c3cnn(CC4(F)CCCC4)c3)cc2n1; 7.64
COCc1nc2cc(-c3nc(C#N)ccc3-c3cnn(CC4(F)CCCC4)c3)ccn2n1; 7.26
Cc1nc2cc(-c3nc(C#N)ccc3-c3cnn(CC4(F)CCCC4)c3)ccn2n1; 7.43
Cc1ccc(-c2cnn(C[C@@H]3CC[C@H](F)C3)c2)c(-c2ccc3cccnc3c2)n1 (racemic) [Example 31]; 7.54

List pEC50 for every entry below, keeping the order given.
1. CC1(Cn2cc(-c3ccc(C#N)nc3-c3ccn4cc(C(F)F)nc4c3)cn2)CCCC1
2. N#Cc1ccc(-c2cnn(CC3(F)CCCC3)c2)c(-c2ccc3c(c2)C(=O)N(C2CC2)C3)n1
3. Cc1ccc(-c2cnn(CC3(C)CCCC3)c2)c(-c2ccc3ccn(C)c(=O)c3c2)n1

1. 7.64
2. 7.89
3. 7.59

List pEC50 for every entry below, keeping the order given.
1. Cc1nc2cc(-c3ncc(F)cc3-c3cnn(CC4(F)CCCC4)c3)ccc2n1C
2. COc1cc2ccc(-c3nc(C)ccc3-c3cnn(CC4CCCC4)c3F)cc2nn1

[7.08, 8.15]
